target: BPAO (Bos taurus)
Sequence (Q29437 17-762): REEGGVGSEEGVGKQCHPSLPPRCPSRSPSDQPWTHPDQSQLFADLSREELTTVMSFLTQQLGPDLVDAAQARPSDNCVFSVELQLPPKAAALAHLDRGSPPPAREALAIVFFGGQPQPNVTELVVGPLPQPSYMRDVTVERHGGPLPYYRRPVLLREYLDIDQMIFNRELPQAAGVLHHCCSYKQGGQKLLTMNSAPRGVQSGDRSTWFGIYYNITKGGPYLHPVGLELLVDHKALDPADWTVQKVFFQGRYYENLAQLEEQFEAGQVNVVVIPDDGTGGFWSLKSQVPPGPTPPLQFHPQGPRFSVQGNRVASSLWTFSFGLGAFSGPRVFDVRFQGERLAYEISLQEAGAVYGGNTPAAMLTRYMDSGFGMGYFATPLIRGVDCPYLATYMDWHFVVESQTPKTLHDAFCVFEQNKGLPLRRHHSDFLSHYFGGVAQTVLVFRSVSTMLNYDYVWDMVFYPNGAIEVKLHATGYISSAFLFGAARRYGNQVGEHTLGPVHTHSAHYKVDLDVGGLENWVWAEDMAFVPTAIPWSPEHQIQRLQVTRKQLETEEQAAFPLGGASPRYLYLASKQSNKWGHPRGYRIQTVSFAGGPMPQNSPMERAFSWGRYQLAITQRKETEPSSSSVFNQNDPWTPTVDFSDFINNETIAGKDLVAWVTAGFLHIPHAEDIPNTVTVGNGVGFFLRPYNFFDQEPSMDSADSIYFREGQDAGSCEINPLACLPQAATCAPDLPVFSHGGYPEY
measurement-protocol: Inhibition of BPAO evaluated with the new fluorometric assay
Format: biochemical, bovine
assay-setup: read-out: 5 min IC50, 30 °C
readout-name: IC50 (nM)

| smiles-data | unit-info | measured-number |
| --- | --- | --- |
| C=C=CCN | nM | 250 |
